System: L1210 leukemia ip in BDF1 mice, survival T/C
Experiment: NCI In Vivo Anticancer Drug Screen. Data for tumor model L1210 Leukemia (intraperitoneal) in B6D2F1 (BDF1) mice
Settings: endpoint: mean survival time; dose: 200.0 mg/kg/injection; schedule: Q01DX009 (ip); vehicle: saline with Tween-80; higher = longer survival
Toxic doses and inconclusive results are not listed.
Value kind: T/C

Smiles structure | Value kind | Meas value
COC(=O)c1ccccc1-c1c(C)cccc1[N+](=O)[O-] | T/C | 90 % of control
O=C(NC(=O)C1CC1)C1CC1 | T/C | 100 % of control
CC[N+]1(CC)N=C([O-])N(C)C1=O | T/C | 101 % of control
CCC/C=C/CCCCCC | T/C | 104 % of control
CCOC(=O)C(C(=O)OCC)=C(C)C | T/C | 100 % of control
COc1ccc(C2(C#N)CC2)cc1 | T/C | 88 % of control
Cc1ccc([N+](=O)[O-])cc1NC(=O)COc1ccc(Cl)cc1 | T/C | 89 % of control
CCOC(=O)c1ccc(NC(=O)Nc2ccc(OC)cc2Cl)cc1 | T/C | 104 % of control
COc1ccc(CCNC(=O)Cc2ccc(OC)c(OC)c2)cc1OC | T/C | 95 % of control
COc1ccc2c(c1)C(=O)CCC2(C)C | T/C | 105 % of control
COc1ccc(Cl)cc1N | T/C | 94 % of control

###

Test system: L1210 leukemia ip in BDF1 mice, survival T/C
Assay: NCI In Vivo Anticancer Drug Screen. Data for tumor model L1210 Leukemia (intraperitoneal) in B6D2F1 (BDF1) mice
Settings: endpoint: mean survival time; dose: 100.0 mg/kg/injection; schedule: Q04DX003 (ip); vehicle: Klucel (hydroxypropylcellulose) (HPC); higher = longer survival
Inconclusive results and toxic doses are left out. Peptide text beside a SMILES is read from it. * marks the point of attachment. Cbz = O=C(OCc1ccccc1)*; Bn = c1ccc(C*)cc1

Compound | T/C
C=CCOc1c(Cl)c(Cl)c(Cl)c(Cl)c1Cl | 96 % of control
O=[N+]([O-])c1ccc(/C=C/c2ccccc2Br)cc1 | 100 % of control
Cc1ccc(NC(=O)c2ccccc2Cl)cc1Cl | 95 % of control
CCCCOC(=O)Oc1ccc(C(=O)Oc2ccc(OCC)cc2)cc1 | 104 % of control
CCOC(=O)C(CCC#N)(CCC#N)C(C)=O | 105 % of control
CC(=O)Nc1ccc(C#N)c2ccccc12 | 102 % of control
CCOC(=O)c1[nH]c(-c2ccccc2)cc1-c1ccccc1 | 118 % of control
NC(=O)NN=C(CS)CS | 101 % of control
O=C(NCCCl)Nc1cccc2c(O)cccc12 | 98 % of control
COC(=O)C(NC(=O)C(CSCc1ccccc1)NC(=O)OCc1ccccc1)C(C)C (stereo not drawn) (Cbz-Cys(Bn)-Val-OMe; configuration not given here) | 95 % of control
c1ccc(C2NC2(c2ccccc2)C2(c3ccccc3)SCCCS2)cc1 (stereo not drawn) | 111 % of control
Cc1ccc(NC(=S)NC(=O)C(C)Oc2ccccc2)cc1Cl (stereo not drawn) | 100 % of control
COc1ccc(OC)c(C(=O)CCCCCCCCC(=O)c2cc(OC)ccc2OC)c1 | 104 % of control
Cn1c(=O)c2[nH]c(Br)nc2n(C)c1=O | 98 % of control
CCOC(=O)C1C2OC(=O)C(C(=O)C2P2(=O)OCCN2CCCl)C1c1ccc(OC(C)=O)cc1 (stereo not drawn) | 108 % of control
O=C(NCCBr)NC1CC1c1ccccc1 (stereo not drawn) | 118 % of control
NC(=S)N/N=C/c1ccco1 | 93 % of control
Cc1cc(OC(=O)Nc2ccc(Cl)c(Cl)c2)ccc1Cl | 96 % of control
Cc1cc2oc(/C=C/C(=O)c3ccc([N+](=O)[O-])cc3)c(C)c2cc1C | 97 % of control
NC1=NC(=O)C(c2ccccc2)O1 (stereo not drawn) | 103 % of control
Cc1nc(N)[nH]c(=O)c1CCCCC#N | 97 % of control
N/C(Cc1ccc(Cl)cc1)=N/O | 104 % of control
CCCCCCP(=O)(CCCCCC)CCCCCC | 97 % of control

###

Test system: L1210 leukemia ip in BDF1 mice, survival T/C
Experiment: NCI In Vivo Anticancer Drug Screen. Data for tumor model L1210 Leukemia (intraperitoneal) in B6D2F1 (BDF1) mice
Settings: endpoint: mean survival time; dose: 200.0 mg/kg/injection; schedule: Q01DX009 (ip); vehicle: Klucel (hydroxypropylcellulose) (HPC); higher = longer survival
Method: The antitumor activity of compounds was measured in mice bearing transplantable tumors. Survival or tumor size were measured and the results are expressed as the measurement made in the treated group (T) divided by the measurement made in the vehicle treated control group (C). The tumor model used in this assay is L1210 Leukemia (intraperitoneal) in B6D2F1 (BDF1) mice
Toxic doses and inconclusive results are not listed.
Value kind: T/C

Compound | Meas value
CC(=O)C1=CN(c2ccccc2)COC1C (centres undefined) | 100 % of control
Cc1ccc(C)c(NC(=O)Nc2cccc(Cl)c2)c1 | 96 % of control
Cc1ccc(Cl)cc1NC(=O)Nc1ccccc1Cl | 91 % of control
COC(=O)c1ccccc1NC(=O)c1c(-c2ccccc2Cl)noc1C | 94 % of control

###

Test system: L1210 leukemia ip in BDF1 mice, survival T/C
Assay: NCI In Vivo Anticancer Drug Screen. Data for tumor model L1210 Leukemia (intraperitoneal) in B6D2F1 (BDF1) mice
Conditions: endpoint: mean survival time; dose: 100.0 mg/kg/injection; schedule: Q04DX003 (ip); vehicle: Klucel (hydroxypropylcellulose) (HPC); higher = longer survival
Method: The antitumor activity of compounds was measured in mice bearing transplantable tumors. Survival or tumor size were measured and the results are expressed as the measurement made in the treated group (T) divided by the measurement made in the vehicle treated control group (C). The tumor model used in this assay is L1210 Leukemia (intraperitoneal) in B6D2F1 (BDF1) mice
Inconclusive results and toxic doses are left out.

Smiles structure | T/C
O=C1CCC/C1=C/c1ccccc1 | 93 % of control
O=C(O)c1ccc(NCc2cccc([N+](=O)[O-])c2)cc1 | 99 % of control
CC(C)(C)COC(=O)CCN1CC1 | 110 % of control
Cc1cc(C)c(NC(=O)Nc2ccccc2)c(C)c1 | 98 % of control

###

The following compounds are listed with their measured T/C values.
System: L1210 leukemia ip in BDF1 mice, survival T/C
Test: NCI In Vivo Anticancer Drug Screen. Data for tumor model L1210 Leukemia (intraperitoneal) in B6D2F1 (BDF1) mice
Settings: endpoint: mean survival time; dose: 200.0 mg/kg/injection; schedule: Q04DX003 (ip); vehicle: Klucel (hydroxypropylcellulose) (HPC); higher = longer survival
Inconclusive results and toxic doses are left out.
Value kind: T/C

Compound | Meas value
c1ccc2c(C3OCC4(CCC4)CO3)cccc2c1 | 100 % of control
Nc1cc([N+](=O)[O-])ccc1Cl | 102 % of control
CCOC(=O)c1[nH]c(-c2ccccc2)cc1-c1ccccc1 | 108 % of control
Cc1cc(C)n(/N=C/c2ccc3c(c2)CCC3)c(=O)c1C#N | 95 % of control
Clc1ccc(Br)c(Cl)c1 | 109 % of control
COC(=O)CC(c1ccc(OC)cc1)C(CC(=O)OC)c1ccc(OC)cc1 (configuration not stated) | 93 % of control
CC(C)=CCCNC(=O)NS(=O)(=O)c1ccc(Cl)cc1 | 110 % of control

###

System: L1210 leukemia ip in BDF1 mice, survival T/C
Experiment: NCI In Vivo Anticancer Drug Screen. Data for tumor model L1210 Leukemia (intraperitoneal) in B6D2F1 (BDF1) mice
Details: endpoint: mean survival time; dose: 100.0 mg/kg/injection; schedule: Q04DX003 (ip); vehicle: saline with Tween-80; higher = longer survival
Inconclusive results and toxic doses are left out.
Parameter: T/C. Scope: all listed entries.

Smiles structure | T/C
NC(=S)N=Nc1c(O)n2c3c(cccc13)CCc1ccccc1-2 | 92 % of control
NNS(=O)(=O)c1ccc(N=Nc2ccccc2)cc1 | 90 % of control
Cc1ccc([N+](=O)[O-])o1 | 91 % of control
OC(COc1ccccc1)COc1ccccc1 | 96 % of control
Cc1ccc(C(=O)C2CC2)cc1C | 98 % of control
Cc1[nH]c(=O)[nH]c(=O)c1CN1CCCCC1 | 100 % of control
CC(=O)Nc1ccc(NC(=O)c2ccccc2Cl)cc1 | 98 % of control
O=C(NCCNCc1ccccc1)c1ccccc1 | 108 % of control
Cc1ccccc1C(C)C | 94 % of control
NNC(=O)c1ccc([N+](=O)[O-])cc1 | 95 % of control

###

Test system: L1210 leukemia ip in BDF1 mice, survival T/C
Assay: NCI In Vivo Anticancer Drug Screen. Data for tumor model L1210 Leukemia (intraperitoneal) in B6D2F1 (BDF1) mice
Conditions: endpoint: mean survival time; dose: 200.0 mg/kg/injection; schedule: Q04DX003 (ip); vehicle: saline with Tween-80; higher = longer survival
Inconclusive results and toxic doses are left out.
Measured T/C of individual entries

Molecule | Target under test | T/C
COc1c2c(c(OC)c3c1C(=O)c1ccccc1C3=O)CC(C(C)=O)CC2 (stereo not drawn) | L1210 leukemia ip in BDF1 mice, survival T/C | 92 % of control
Cc1nc2cccc3ccc4c5ccccc5cc1c4c32 | L1210 leukemia ip in BDF1 mice, survival T/C | 92 % of control
OCCC1=CCCCC1 | L1210 leukemia ip in BDF1 mice, survival T/C | 95 % of control
O=C(NC(=O)C1CC1)C1CC1 | L1210 leukemia ip in BDF1 mice, survival T/C | 87 % of control
O=C1C(Br)=C(Br)C(=O)C1(Br)Br | L1210 leukemia ip in BDF1 mice, survival T/C | 96 % of control
O=C1OCc2cccc3cccc1c23 | L1210 leukemia ip in BDF1 mice, survival T/C | 104 % of control
CCOc1nc(N)nc2c1-c1ccccc1CC2 | L1210 leukemia ip in BDF1 mice, survival T/C | 97 % of control
CC(=N)c1c(O)cc(C)oc1=O | L1210 leukemia ip in BDF1 mice, survival T/C | 101 % of control
COc1ccc([N+](=O)[O-])cc1NS(=O)(=O)c1cccc([N+](=O)[O-])c1 | L1210 leukemia ip in BDF1 mice, survival T/C | 97 % of control
CCC(=O)C(CC)c1ccccc1 (stereo not drawn) | L1210 leukemia ip in BDF1 mice, survival T/C | 97 % of control
Cc1sc2c(c1-c1ccccc1)C(=O)CCCN2 | L1210 leukemia ip in BDF1 mice, survival T/C | 100 % of control
CCCNC(=O)C1C2CCC(C2)C1C(=O)NCCC (stereo not drawn) | L1210 leukemia ip in BDF1 mice, survival T/C | 96 % of control
CC(=O)Nc1cccc(/C=C/C=C/c2ccc([N+](=O)[O-])cc2)c1 | L1210 leukemia ip in BDF1 mice, survival T/C | 90 % of control
